System: L1210 leukemia
Assay: MTT in vitro cytotoxicity assay, L1210
Type: cell-based, mouse
Details: Mus musculus, L1210, 72 hours incubation
pIC50: −log10 of the molar value.
Recorded endpoint: pIC50

> print(dat)
                                compound  measured.value
1  Cn1cnc2c(NCc3ccccc3)nc(NCCO)nc21 [OC]            4.63

###

Tested on: U937
Test: MTT in vitro cytotoxicity assay, U937
Format: cell-based
Details: 72 hours incubation
Description: One of the parameters used as the basis for colorimetric assays is the metabolic activity of viable cells. For example, a microtiter assay which uses the tetrazolium salt 3-[4,5-Dimethylthiazol-2-yl]-2,5-diphenyltetrazolium bromide; Thiazolyl blue (hereinafter MTT) is now widely used to quantitate cell proliferation and cytotoxicity, for instance, in drug screening programs and in chemosensitivity testing. […] The quantity of reduced formazan corresponds to number of vital cells in the culture. […]
pIC50: −log10 of the molar value.
Recorded endpoint: pIC50

> print(dat)
          chemical.structure  recorded.endpoint  measured.value
1  CC(C)=CCNc1ncnc2nc[nH]c12              pIC50            3.57
